experiment: chemical genetic growth profiling, strain panel (AID 1159580);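 also: tested at 20 µM; growth read once vehicle control cultures reached saturation at 30 °C; 1 = growth at the plate median or of vehicle wells; lower values mean less growth of the strain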; conditions: S. cerevisiae deletion strains, growth OD, locus YJL154C, strain vps35
The whole screen tested about 5,500 compounds, of which about 2,000 (36%) were called active. About 18% were inconclusive and are not listed. Rule as the data show it: active = normalized growth mostly below about 0.91 (no sharp cut-off); inconclusive = no clear call, values can overlap the other calls; inactive = mostly above about 0.92. This is one part of the list.
Respond with a class label; see active, inactive

* O=c1c(-c2ccc(O)cc2)coc2c(C3O[C@H](CO)[C@@H](O)[C@H](O)[C@H]3O)c(O)ccc12 (stereo partly specified) | inactive
* CC(C)c1cccc(O)c(=O)c1 | active

[ask] Dear all, I need the recorded test outcome for "CNC[C@H](O)c1cccc(O)c1" , thank you.
[reply] inactive

[ask] Dear all, I need the recorded test outcome for "OC1(c2ccc(Cl)c(C(F)(F)F)c2)CCN(CCCC(c2ccc(F)cc2)c2ccc(F)cc2)CC1" , thank you.
[reply] active

[ask] Dear all, I need the recorded test outcome for "COc1ccc(-c2cc(=O)c3c(O)cc(O)cc3o2)cc1" , thank you.
[reply] inactive

[ask] Dear all, I need the recorded test outcome for "COc1ccc(-c2cc(=O)c3c(O)c(OC)c(O[C@H]4O[C@H](CO[C@@H]5O[C@@H](C)[C@H](O)[C@@H](O)[C@H]5O)[C@@H](O)[C@H](O)[C@H]4O)cc3o2)cc1" , thank you.
[reply] inactive

----------
test: chemical genetic growth profiling, strain panel (AID 1159580);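 also: tested at 20 µM; growth read once vehicle control cultures reached saturation at 30 °C; 1 = growth at the plate median or of vehicle wells; lower values mean less growth of the strain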; conditions: S. cerevisiae deletion strains, growth OD, locus YJL129C, strain trk1, active compounds read low
Hit rate of the full screen: of about 5,500 compounds, about 2,000 (36%) were called active. Another 18% or so got no clear call; they are omitted. The list shows a part of the results.
reported endpoint: normalized growth
Lab note: write the figure by itself, no unit.

Example entries and their recorded answers appear below.
• COC1CC(OC2CCC3(C)C(CCC4C3CCC3(C)C(C5=CC(=O)OC5)C(OC(C)=O)CC43O)C2)OC(C)C1O (stereo unspecified) = 1.02
• CCC(=O)NCC[C@@H]1CCc2ccc3c(c21)CCO3 = 1
• C[C@H]1O[C@@H](O[C@H]2[C@@H](O)C[C@H](O[C@H]3[C@@H](O)C[C@H](O[C@H]4CC[C@]5(C)C6CC[C@]7(C)[C@@H](C8=CC(=O)OC8)CC[C@]7(O)C6CC[C@@H]5C4)O[C@@H]3C)O[C@@H]2C)C[C@H](O)[C@@H]1O (stereo partly specified) = 0.988
• C[C@@H](CO)NC(=O)C1C=C2c3cccc4[nH]cc(c34)C[C@H]2N(C)C1 (stereo partly specified) = 1.02
• CC(C)C[C@@H](NC(=O)OCC1c2ccccc2-c2ccccc21)C(=O)O = 1

Turning now to a further record.
[ask] Dear colleague, I am looking for the recorded normalized growth of the following compound: "O=C1CC2(CCCC2)CC(=O)N1CCCCN1CCN(c2ncccn2)CC1"
[reply] 1.02

----------
experiment: chemical genetic growth profiling, strain panel (AID 1159580);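 also: tested at 20 µM; growth read once vehicle control cultures reached saturation at 30 °C; 1 = growth at the plate median or of vehicle wells; lower values mean less growth of the strain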; settings: S. cerevisiae deletion strains, growth OD, locus YOR316C, strain cot1, active compounds read low
The whole screen tested about 5,500 compounds, of which about 2,000 (36%) were called active. Roughly 18% stayed inconclusive and do not appear here. This is one part of the list.
reported endpoint: normalized growth

Example entries and their recorded answers appear below.
- COC1CC(O[C@H]2CC[C@]3(C=O)C4CC[C@]5(C)C(C6=CC(=O)OC6)CC[C@]5(O)C4CC[C@]3(O)C2)OC(C)C1O (stereo not given in full): 0.984 (inactive)
- NS(=O)(=O)c1cc2c(cc1C(F)(F)F)NC(Cc1ccccc1)NS2(=O)=O (stereo not given): 1.01 (inactive)
- NC(N)=Nc1ccc(Cl)cc1: 1 (inactive)
- CO[C@@H]1C[C@H](O[C@H]2CC[C@]3(C)C4CC[C@]5(C)[C@@H](C6=CC(=O)OC6)CC[C@]5(O)[C@@H]4CC[C@]3(O)C2)O[C@H](C)[C@@H]1O (stereo not given in full): 1.02 (inactive)

[ask] Dear colleague, I am looking for the recorded normalized growth of the following compound: "NC[C@H]1O[C@H](O[C@H]2[C@H](O)[C@@H](O[C@H]3O[C@H](CO)[C@@H](O)[C@H](N)[C@H]3O)[C@H](N)C[C@@H]2N)[C@H](N)[C@@H](O)[C@@H]1O"
[reply] 0.978 (inactive)
